The measurements presented in this section are drawn from the supplement of paper PMC12494721.

fold change of Cadaverine concentration for assorted molecules
# Test system: Klebsiella aerogenes DSM 30053
# Method: fold change of Cadaverine concentration vs plate DMSO controls (fold change (ratio)); higher = more amine produced, active = hit call of the paper (significant change in both replicates, either direction)
# Experimental Context: incubation time: 27 h, anaerobic, 37 °C
Where a name gives a salt, the structure may show the parent alone.
Number only, no unit.

// known answers, use as guide
Molecule	Assay Value
Cc1ccc(/C(=C\CN2CCCC2)c2ccccn2)cc1 [Triprolidine hydrochloride] (20 µM)	0.987
NCCCC(O)(P(=O)(O)O)P(=O)(O)O [Alendronate sodium] (20 µM)	1.01
CC(CN1c2ccccc2Sc2ccccc21)N(C)C (centres undefined) [Promethazine hydrochloride] (20 µM)	1.02

Shift focus to the following entry.
### Prompt Identify fold change of Cadaverine concentration associated with the molecule COC(=O)[C@H](Cc1ccccc1)NC(=O)[C@H](CC(=O)O)NCCC(C)(C)C [Neotame] (50 µM)
### Response 1.02

---

# System: Ruminococcus gnavus DSM 108212
# Method: fold change of Tryptamine concentration vs plate DMSO controls (fold change (ratio)); higher = more amine produced, active = hit call of the paper (significant change in both replicates, either direction);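 for the amine columns active = adjusted P below 0.05 in both replicates with a change the same way and a mean fold change under 0.8 or over 1.25; inactive = the rest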
# Experimental Context: incubation time: 27 h, anaerobic, 37 °C
Where a name gives a salt, the structure may show the parent alone.
The reply should name one outcome from true (active), false (inactive)

Compound	Test Target	Class
O=c1oc2ccccc2c(O)c1Cc1c(O)c2ccccc2oc1=O [Dicumarol] (20 µM)	Ruminococcus gnavus DSM 108212	false
CCC(=O)O[C@]1(C(=O)CCl)[C@@H](C)C[C@H]2[C@@H]3CCC4=CC(=O)C=C[C@]4(C)[C@@]3(F)[C@@H](O)C[C@@]21C [Clobetasol propionate] (20 µM)	Ruminococcus gnavus DSM 108212	false
CCOC(=O)C1=C(COCCN)NC(C)=C(C(=O)OC)C1c1ccccc1Cl (configuration not stated) [Amlodipine] (20 µM)	Ruminococcus gnavus DSM 108212	false
OC[C@@H](O)[C@@H](O[C@H]1O[C@H](CO)[C@@H](O)[C@H](O)[C@H]1O)[C@H](O)[C@@H](O)CO [Maltitol] (50 µM)	Ruminococcus gnavus DSM 108212	false
CNCC[C@@H](Oc1cccc2ccccc12)c1cccs1 [(R)-Duloxetine hydrochloride] (20 µM)	Ruminococcus gnavus DSM 108212	false

### Prompt Test call, this compound: CC1=NN(c2ccccc2)C(=O)C1 [Edaravone] (20 µM)
### Response false

### Prompt Test call, this compound: CC(=O)O[C@H]1C[C@@]2(C)[C@@H](C[C@@H](O)[C@H]3[C@@]4(C)CC[C@@H](O)[C@@H](C)[C@@H]4CC[C@@]32C)/C1=C(\CCC=C(C)C)C(=O)O [Fusidic acid sodium salt] (20 µM)
### Response true

---

growth for assorted compounds
# Tested on: Escherichia coli IAI1
# Method: growth (OD595) fold change vs plate DMSO controls (fold change (ratio)); higher = more growth
# Experimental Context: incubation time: 27 h, anaerobic, 37 °C
Where a name gives a salt, the structure may show the parent alone.
Number only, no unit.

### Prompt Identify growth associated with the compound c1cnc(N2CCN(Cc3ccc4c(c3)OCO4)CC2)nc1 [Piribedil] (20 µM)
### Response 1

### Prompt Identify growth associated with the compound COc1ccc2c(c1)C(=O)N(CCc1ccc(S(=O)(=O)NC(=O)NC3CCCCC3)cc1)C(=O)C2(C)C [Gliquidone] (20 µM)
### Response 1.05

### Prompt Identify growth associated with the compound COC(=O)Nc1nc2cc(Sc3ccccc3)ccc2[nH]1 [Fenbendazole] (20 µM)
### Response 1.08

### Prompt Identify growth associated with the compound C#CCN[C@@H]1CCc2ccccc21 [Rasagiline] (20 µM)
### Response 0.959

### Prompt Identify growth associated with the compound O=C(O)CN(CCN(CC(=O)O)CC(=O)O)CCN(CC(=O)O)CC(=O)O [Pentetic acid] (20 µM)
### Response 1.04

### Prompt Identify growth associated with the compound CC(=O)[C@@]12O[C@](C)(c3ccccc3)O[C@@H]1C[C@H]1[C@@H]3CCC4=CC(=O)CC[C@]4(C)[C@H]3CC[C@@]12C [Algestone acetophenide] (20 µM)
### Response 1.22

### Prompt Identify growth associated with the compound COC(=O)[C@H](Cc1ccccc1)NC(=O)[C@@H](N)CC(=O)O [Aspartame] (50 µM)
### Response 0.921

### Prompt Identify growth associated with the compound CNC1(C)C2CCC(C2)C1(C)C (stereo not drawn) [Mecamylamine hydrochloride] (20 µM)
### Response 1.06

---

# Tested on: Ruminococcus gnavus DSM 108212
# Method: growth (OD595) fold change vs plate DMSO controls (fold change (ratio)); higher = more growth
# Experimental Context: incubation time: 27 h, anaerobic, 37 °C
Counter-ions that a name gives are not always drawn.
Measurement Kind: growth
Number only, no unit.

// known answers, use as guide
Compound	Test Target	growth
CN1CCN(c2c(F)cc3c(=O)c(C(=O)O)cn4c3c2SCC4)CC1 [Rufloxacin] (20 µM)	Ruminococcus gnavus DSM 108212	0.953
O=C1OC(CN2CCOCC2)CN1/N=C/c1ccc([N+](=O)[O-])o1 (configuration not stated) [Furaltadone hydrochloride] (20 µM)	Ruminococcus gnavus DSM 108212	0.987
CC(C)c1nc(N(C)S(C)(=O)=O)nc(-c2ccc(F)cc2)c1/C=C/[C@@H](O)C[C@@H](O)CC(=O)O [Rosuvastatin] (20 µM)	Ruminococcus gnavus DSM 108212	1.01
CCN1/C(=C/C=C/C=C/c2sc3ccccc3[n+]2CC)Sc2ccccc21 [Dithiazanine iodide] (20 µM)	Ruminococcus gnavus DSM 108212	1.24
CCOC(=O)O[C@]1(C(=O)OCCl)CC[C@H]2[C@@H]3CCC4=CC(=O)C=C[C@]4(C)[C@H]3[C@@H](O)C[C@@]21C [Loteprednol etabonate] (20 µM)	Ruminococcus gnavus DSM 108212	1.08

### Prompt Identify growth associated with the compound COc1ccc(-c2noc(CC(=O)O)c2-c2ccc(OC)cc2)cc1 [Mofezolac] (20 µM)
### Response 1.21

### Prompt Identify growth associated with the compound CC1(C)S[C@@H]2[C@H](NC(=O)[C@H](N)c3ccccc3)C(=O)N2[C@H]1C(=O)O [Ampicillin trihydrate] (20 µM)
### Response 0

---

# Tested on: Ruminococcus gnavus DSM 108212
# Method: fold change of 2-Phenylethylamine concentration vs plate DMSO controls (fold change (ratio)); higher = more amine produced, active = hit call of the paper (significant change in both replicates, either direction)
# Experimental Context: incubation time: 27 h, anaerobic, 37 °C
Structures can show the parent of a compound that is named as a salt.
Quick rule for you: fold change of 2-Phenylethylamine concentration at 1 or higher means t, lower means f.

Sample answers from the record:
Molecule	Class
CCOC(=O)c1ccc(N)cc1 [Benzocaine] (20 µM)	t
O=C(O)c1cc(/N=N/c2ccc(S(=O)(=O)Nc3ccccn3)cc2)ccc1O [Sulfasalazine] (20 µM)	f
CNC(=C[N+](=O)[O-])NCCSCc1csc(CN(C)C)n1 [Nizatidine] (20 µM)	f
CC(N/C(=N\C#N)Nc1ccncc1)C(C)(C)C (stereo not given) [Pinacidil monohydrate] (20 µM)	t
COc1ccc(C(=O)NCc2ccc(OCCN(C)C)cc2)cc1OC [Itopride] (20 µM)	t

### Prompt Identify whether the reported fold change of 2-Phenylethylamine concentration of the following molecule is 1 or greater: CCC1(c2ccccc2)NC(=O)N(C)C1=O (stereo not given) [Mephenytoin] (20 µM)
### Response t

### Prompt Identify whether the reported fold change of 2-Phenylethylamine concentration of the following molecule is 1 or greater: c1ccc2c(c1)Cc1ccccc1-2 [Fluorene] (20 µM)
### Response f

### Prompt Identify whether the reported fold change of 2-Phenylethylamine concentration of the following molecule is 1 or greater: CC(C(=O)O)c1ccc(-c2ccccc2)c(F)c1 (stereo not given) [Flurbiprofen] (20 µM)
### Response f

### Prompt Identify whether the reported fold change of 2-Phenylethylamine concentration of the following molecule is 1 or greater: N/C(=N\C(=O)c1nc(Cl)c(N)nc1N)NCc1ccccc1 [Benzamil hydrochloride] (20 µM)
### Response f

### Prompt Identify whether the reported fold change of 2-Phenylethylamine concentration of the following molecule is 1 or greater: CC1(C)O[C@@H]2[C@@H](CO[C@@]3(COS(N)(=O)=O)OC(C)(C)O[C@@H]23)O1 [Topiramate] (20 µM)
### Response f

### Prompt Identify whether the reported fold change of 2-Phenylethylamine concentration of the following molecule is 1 or greater: COc1cc2nc(N3CCN(C(=O)C4CCCO4)CC3)nc(N)c2cc1OC (stereo not given) [Terazosin hydrochloride] (20 µM)
### Response f

### Prompt Identify whether the reported fold change of 2-Phenylethylamine concentration of the following molecule is 1 or greater: Clc1ccc(COC(Cn2ccnc2)c2ccc(Cl)cc2Cl)c(Cl)c1 (stereo not given) [Miconazole] (20 µM)
### Response f

### Prompt Identify whether the reported fold change of 2-Phenylethylamine concentration of the following molecule is 1 or greater: COc1nc(N)nc2c1ncn2[C@@H]1O[C@H](CO)[C@@H](O)[C@@H]1O [Nelarabine] (20 µM)
### Response t

### Prompt Identify whether the reported fold change of 2-Phenylethylamine concentration of the following molecule is 1 or greater: CC(=O)O[C@H]1C[C@@]2(C)[C@@H](C[C@@H](O)[C@H]3[C@@]4(C)CC[C@@H](O)[C@@H](C)[C@@H]4CC[C@@]32C)/C1=C(\CCC=C(C)C)C(=O)O [Fusidic acid sodium salt] (20 µM)
### Response f

### Prompt Identify whether the reported fold change of 2-Phenylethylamine concentration of the following molecule is 1 or greater: CO/N=C(\C(=O)N[C@@H]1C(=O)N2C(C(=O)OC(C)OC(C)=O)=C(COC(N)=O)CS[C@H]12)c1ccco1 (stereo not given in full) [Cefuroxime axetil] (20 µM)
### Response f

### Prompt Identify whether the reported fold change of 2-Phenylethylamine concentration of the following molecule is 1 or greater: CC(=O)OCC(=O)[C@@]1(O)CC[C@H]2[C@@H]3CCC4=CC(=O)CC[C@]4(C)[C@H]3[C@@H](O)C[C@@]21C [Cortisol acetate] (20 µM)
### Response f

### Prompt Identify whether the reported fold change of 2-Phenylethylamine concentration of the following molecule is 1 or greater: O=C(Cn1c(=O)sc2ccc(Cl)cc21)N1CCN(CCO)CC1 [Tiaramide Hydrochloride] (20 µM)
### Response t
